- Tested on: HOP-62 NSCLC
- protocol description: NCI-60 one-dose screen, 48 h
- experimental conditions: 10 µM unless noted
- Protocol: Growth inhibition of the HOP-62 human Non-Small Cell Lung tumor cell line is measured as a screen for anti-cancer activity. Cells are grown in 96 well plates and exposed to the test compound for 48 hours. Compounds are tested at a single concentration, which is 10^-5 M for most compounds. The reported endpoint is percent growth (GI% or GIPRCNT), where numbers from 0 - 100% represent growth inhibition, and numbers from -100% - 0 represent cell death. […]
The panel holds about 83,000 compounds, 20% with a hit somewhere; the sample as a whole holds those more often. Calls of active or inactive are those of the source. The calls were made as follows: active = growth percent below 10; inactive = the rest.
Outcome codes: active, inactive

molecule="COc1ccc(/C=N/C2=C(C#N)C(c3ccccc3[N+](=O)[O-])c3ccc4ccccc4c3O2)cc1 (stereo not given)" tested_target="HOP-62 NSCLC" class_label=inactive
molecule=O=C(Nc1ccccc1)Oc1ccccc1-c1ccccc1 tested_target="HOP-62 NSCLC" class_label=inactive
molecule=[O-][n+]1ccccc1CCN(O)CCc1cccc[n+]1[O-] tested_target="HOP-62 NSCLC" class_label=inactive
molecule=Cc1cc(C(=O)Nc2ncnc3nc[nH]c23)no1 tested_target="HOP-62 NSCLC" class_label=inactive
molecule="N#CC1=C(N)Oc2c(ccc3ccccc23)C1c1ccc([N+](=O)[O-])cc1 (stereo not given)" tested_target="HOP-62 NSCLC" class_label=inactive
molecule="COC(=O)C1=C(C(=O)ONCCN(C)C)C2C=CC1(C(Cc1ccccc1)Nc1ccc(F)cc1)O2 (stereo not given)" tested_target="HOP-62 NSCLC" class_label=inactive
molecule=COc1ccc2c(c1)OC13Oc4cc(OC)ccc4C=C1CCCC3=C2 tested_target="HOP-62 NSCLC" class_label=inactive
molecule=CNC(=O)c1c(NC(=O)c2ccc(C(C)C)cc2)sc2c(CN(C)C)c(O)ccc12 tested_target="HOP-62 NSCLC" class_label=inactive
molecule="Cc1ccc(C2CC(c3cccc(Nc4ccncc4)c3)=NN2c2cc(Cl)cc(Cl)c2)cc1 (stereo not given)" tested_target="HOP-62 NSCLC" class_label=inactive
molecule=Cc1cccc(Oc2ccc(Nc3ncnc4ccc(NC(=O)CNCCO)cc34)cc2Cl)c1 tested_target="HOP-62 NSCLC" class_label=inactive
molecule=COc1ccccc1-c1c(-c2ccc(Cl)cc2)c2cc3c(cc2[nH]c1=O)OCCO3 tested_target="HOP-62 NSCLC" class_label=inactive
molecule=CN(C)CCCn1c2c(c3ccc(-c4ccn[nH]4)cc3c1=O)C(=O)c1ccccc1-2 tested_target="HOP-62 NSCLC" class_label=active
molecule="O=c1[nH]c2c(s1)CCCC2CN1CCCCC1 (stereo not given)" tested_target="HOP-62 NSCLC" class_label=inactive
molecule=COc1cc2c(cc1[N+](=O)[O-])-c1ccc([N+](=O)[O-])cc1/C2=N\O tested_target="HOP-62 NSCLC" class_label=inactive
molecule=COc1cc2ncnc(Nc3ccc(C(=O)/C=C/c4ccc(C(F)(F)F)cc4F)cc3)c2cc1OC tested_target="HOP-62 NSCLC" class_label=inactive
molecule=S=c1[nH]cccc1-c1nnc2n1Nc1nc3ccc(Cl)cc3cc1CS2 tested_target="HOP-62 NSCLC" class_label=inactive
molecule=CCCCCCCCCCN=C(N)N=C(N)N tested_target="HOP-62 NSCLC" class_label=inactive
molecule=Cn1c(COC(=O)N2CCCCC2)nc2c(N3CCOCC3)nc(-c3ccccc3)nc21 tested_target="HOP-62 NSCLC" class_label=active
molecule=O=c1[nH]nc(-c2ccc(Br)cc2)cc1Cc1ccc(O)cc1 tested_target="HOP-62 NSCLC" class_label=inactive
molecule=CCOC(=O)Oc1c(OC)cc(C(=O)O[C@@H]2C[C@@H]3CN4CCc5c([nH]c6cc(OC)ccc56)[C@H]4C[C@@H]3[C@H](C(=O)OC)[C@H]2OC)cc1OC tested_target="HOP-62 NSCLC" class_label=inactive
